Record form. Attribute: Antibacterial activity (MIC). Fill in for each entry.
- System: S. aureus UBMS 88-7 (tetK)
- assay.procedure: MIC, agar dilution
- Assay type: cell-based
- recorded.conditions: S. aureus UBMS 88-7 TetK; Table IA; unit assumed
Where a name gives a salt, the structure may show the parent alone.
Remember to follow the number with its unit.

Consider the following illustrative entries.
Which Antibacterial activity (MIC) value belongs to CN(C)c1cc(NC(=O)CNC2CCC2)c(O)c2c1CC1CC3C(N(C)C)C(O)=C(C(N)=O)C(=O)C3(O)C(O)=C1C2=O (centres unmarked) ?
4 µg/mL

Please give the result for CCCCNCC(=O)Nc1cc(N(C)C)c2c(c1O)C(=O)C1=C(O)C3(O)C(=O)C(C(N)=O)=C(O)C(N(C)C)C3CC1C2.Cl.Cl (centres unmarked) too.
2 µg/mL

# iterate: CN(C)c1cc(NC(=O)CNCc2ccccc2)c(O)c2c1CC1CC3C(N(C)C)C(O)=C(C(N)=O)C(=O)C3(O)C(O)=C1C2=O.Cl.Cl (centres unmarked)
2 µg/mL

Then what about the molecule CN(C)CC(=O)Nc1cc(N(C)C)c2c(c1O)C(=O)C1=C(O)C3(O)C(=O)C(C(N)=O)=C(O)C(N(C)C)C3CC1C2.O=S(=O)(O)O.O=S(=O)(O)O (centres unmarked) ?
1 µg/mL

Also, CN(C)CC(=O)Nc1cc(N(C)C)c2c(c1O)C(=O)C1=C(O)[C@]3(O)C(=O)C(C(=O)NCN4CCCC4)=C(O)[C@@H](N(C)C)C3CC1C2 (some centres unmarked) please.
1 µg/mL

Okay, and Br.CC(Br)C(=O)Nc1cc(N(C)C)c2c(c1O)C(=O)C1=C(O)C3(O)C(=O)C(C(N)=O)=C(O)C(N(C)C)C3CC1C2 (centres unmarked) ?
16 µg/mL

# batch size: 8; output Antibacterial activity (MIC) per entry
1. CC(C(=O)Nc1cc(N(C)C)c2c(c1O)C(=O)C1=C(O)C3(O)C(=O)C(C(N)=O)=C(O)C(N(C)C)C3CC1C2)N1CCCC1.Cl.Cl (centres unmarked)
2. CN(C)c1cc(NC(=O)CN2CCOCC2)c(O)c2c1CC1CC3[C@H](N(C)C)C(O)=C(C(N)=O)C(=O)[C@@]3(O)C(O)=C1C2=O.Cl.Cl (some centres unmarked)
3. CN(C)CCCC(=O)Nc1cc(N(C)C)c2c(c1O)C(=O)C1=C(O)[C@]3(O)C(=O)C(C(N)=O)=C(O)[C@@H](N(C)C)C3CC1C2.Cl.Cl (some centres unmarked)
4. CCCCCCNCC(=O)Nc1cc(N(C)C)c2c(c1O)C(=O)C1=C(O)[C@]3(O)C(=O)C(C(N)=O)=C(O)[C@@H](N(C)C)C3CC1C2 (some centres unmarked) [BBB, dihydrochloride]
5. CCNCC(=O)Nc1cc(N(C)C)c2c(c1O)C(=O)C1=C(O)[C@]3(O)C(=O)C(C(N)=O)=C(O)[C@@H](N(C)C)C3CC1C2.Cl.Cl (some centres unmarked)
6. CC(C(=O)Nc1cc(N(C)C)c2c(c1O)C(=O)C1=C(O)[C@]3(O)C(=O)C(C(N)=O)=C(O)[C@@H](N(C)C)C3CC1C2)N(C)C.Cl.Cl (some centres unmarked)
7. CCN(CC)CC(=O)Nc1cc(N(C)C)c2c(c1O)C(=O)C1=C(O)[C@]3(O)C(=O)C(C(N)=O)=C(O)[C@@H](N(C)C)C3CC1C2.Cl.Cl (some centres unmarked)
8. CN(C)CC(=O)Nc1cc(N(C)C)c2c(c1O)C(=O)C1=C(O)[C@]3(O)C(=O)C(C(=O)NCN4CCOCC4)=C(O)[C@@H](N(C)C)C3CC1C2 (some centres unmarked)

0.5 µg/mL
32 µg/mL
16 µg/mL
2 µg/mL
8 µg/mL
1 µg/mL
0.5 µg/mL
1 µg/mL
